target: Pgp (LCC6MDR cells) (Homo sapiens)
Sequence (P08183 whole entry): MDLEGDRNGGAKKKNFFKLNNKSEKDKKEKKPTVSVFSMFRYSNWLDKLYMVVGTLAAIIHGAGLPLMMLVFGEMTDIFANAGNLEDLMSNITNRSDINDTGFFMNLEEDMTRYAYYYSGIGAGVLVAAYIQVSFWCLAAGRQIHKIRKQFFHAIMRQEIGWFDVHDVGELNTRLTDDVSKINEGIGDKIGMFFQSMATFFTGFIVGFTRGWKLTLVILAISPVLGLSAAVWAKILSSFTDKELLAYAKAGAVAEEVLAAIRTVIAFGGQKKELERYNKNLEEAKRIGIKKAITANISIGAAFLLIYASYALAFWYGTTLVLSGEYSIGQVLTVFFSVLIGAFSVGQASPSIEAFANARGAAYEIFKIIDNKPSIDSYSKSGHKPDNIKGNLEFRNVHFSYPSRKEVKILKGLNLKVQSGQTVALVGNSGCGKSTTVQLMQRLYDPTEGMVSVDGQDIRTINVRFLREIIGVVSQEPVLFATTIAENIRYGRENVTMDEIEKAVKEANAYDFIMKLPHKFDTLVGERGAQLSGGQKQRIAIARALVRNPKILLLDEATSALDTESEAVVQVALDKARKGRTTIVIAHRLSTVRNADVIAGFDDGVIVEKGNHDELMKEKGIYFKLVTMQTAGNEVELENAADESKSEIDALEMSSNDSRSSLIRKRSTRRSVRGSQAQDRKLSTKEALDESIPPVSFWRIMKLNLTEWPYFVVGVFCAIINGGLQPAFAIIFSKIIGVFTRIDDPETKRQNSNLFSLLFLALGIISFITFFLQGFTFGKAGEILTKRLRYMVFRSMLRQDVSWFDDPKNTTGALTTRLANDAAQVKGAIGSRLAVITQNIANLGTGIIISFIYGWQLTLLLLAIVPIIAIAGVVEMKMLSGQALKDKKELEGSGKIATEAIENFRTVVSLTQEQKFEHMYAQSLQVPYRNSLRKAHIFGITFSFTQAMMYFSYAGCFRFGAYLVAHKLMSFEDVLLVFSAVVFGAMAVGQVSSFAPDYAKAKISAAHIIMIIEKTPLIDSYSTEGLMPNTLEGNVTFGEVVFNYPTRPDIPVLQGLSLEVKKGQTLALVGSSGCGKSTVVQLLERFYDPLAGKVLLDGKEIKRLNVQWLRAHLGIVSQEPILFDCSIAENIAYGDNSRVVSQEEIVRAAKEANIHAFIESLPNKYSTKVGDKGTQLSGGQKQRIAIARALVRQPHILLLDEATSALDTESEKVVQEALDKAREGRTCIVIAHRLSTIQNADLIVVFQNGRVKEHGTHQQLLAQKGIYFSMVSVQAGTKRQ
assay-text: Cell proliferation assay: Pgp-modulating activity, reversal of anticancer drug resistance in LCC6MDR cells
condition: IC50 of compounds for L929/EC50 of compounds for lowering paclitaxel drug resistance
Each entry below carries its recorded Therapeutic index.
Number only, please.

- molecule: "O=c1cc(-c2ccc(OCCOCCN(CCOCCOc3ccc(-c4cc(=O)c5ccccc5o4)cc3)Cc3ccc(C(F)(F)F)cc3)cc2)oc2ccccc12 [Compound 35]"
  measurement: 218.0

Task item: Item under review: O=c1cc(-c2ccc(OCCOCCN(CCOCCOc3ccc(-c4cc(=O)c5ccccc5o4)cc3)Cc3ccc(F)cc3)cc2)oc2ccccc12 [Compound 34] . Reported Therapeutic index?
Reply: 77.3

Task item: Item under review: O=c1cc(-c2ccc(OCCOCCN(CCOCCOc3ccc(-c4cc(=O)c5ccccc5o4)cc3)CC3CCCCC3)cc2)oc2ccccc12 [Compound 62] . Reported Therapeutic index?
Reply: 143.2

Task item: Item under review: O=c1cc(-c2ccc(OCCOCCN(CCOCCOc3ccc(-c4cc(=O)c5ccccc5o4)cc3)Cc3ccc(O)cc3)cc2)oc2ccccc12 [Compound 42d] . Reported Therapeutic index?
Reply: 34.0

Task item: Item under review: O=c1cc(-c2ccc(OCCOCCNCCOCCOc3ccc(-c4cc(=O)c5ccccc5o4)cc3)cc2)oc2ccccc12 [Compound 12a] . Reported Therapeutic index?
Reply: 19.3

Ref: patent US8980848B2
